Data provenance is patent US7342029B2.

# tested_target: IκB kinase (Homo sapiens, UniProt O14920+O15111)
# Construct: endogenous in cells
# Sequence (O14920 whole entry): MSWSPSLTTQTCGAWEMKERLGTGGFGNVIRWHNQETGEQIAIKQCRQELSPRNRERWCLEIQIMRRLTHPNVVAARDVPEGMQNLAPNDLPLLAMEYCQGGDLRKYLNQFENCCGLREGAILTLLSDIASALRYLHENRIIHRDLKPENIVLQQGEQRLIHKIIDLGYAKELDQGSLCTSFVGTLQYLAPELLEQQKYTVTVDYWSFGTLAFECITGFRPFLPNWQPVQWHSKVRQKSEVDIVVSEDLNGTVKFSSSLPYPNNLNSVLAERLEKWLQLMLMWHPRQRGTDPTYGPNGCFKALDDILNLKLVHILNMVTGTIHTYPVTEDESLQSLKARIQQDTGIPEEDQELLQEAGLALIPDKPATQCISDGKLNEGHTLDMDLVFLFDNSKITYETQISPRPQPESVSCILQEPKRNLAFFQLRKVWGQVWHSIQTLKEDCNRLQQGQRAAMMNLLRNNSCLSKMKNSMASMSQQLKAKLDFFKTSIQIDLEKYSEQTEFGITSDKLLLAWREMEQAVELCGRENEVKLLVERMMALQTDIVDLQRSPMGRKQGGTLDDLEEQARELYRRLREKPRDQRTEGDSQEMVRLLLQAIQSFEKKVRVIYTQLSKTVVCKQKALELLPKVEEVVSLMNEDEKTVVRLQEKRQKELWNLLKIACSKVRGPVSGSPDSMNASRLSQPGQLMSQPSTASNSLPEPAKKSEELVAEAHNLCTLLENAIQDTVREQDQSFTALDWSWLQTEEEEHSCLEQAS
# Sequence (O15111 whole entry): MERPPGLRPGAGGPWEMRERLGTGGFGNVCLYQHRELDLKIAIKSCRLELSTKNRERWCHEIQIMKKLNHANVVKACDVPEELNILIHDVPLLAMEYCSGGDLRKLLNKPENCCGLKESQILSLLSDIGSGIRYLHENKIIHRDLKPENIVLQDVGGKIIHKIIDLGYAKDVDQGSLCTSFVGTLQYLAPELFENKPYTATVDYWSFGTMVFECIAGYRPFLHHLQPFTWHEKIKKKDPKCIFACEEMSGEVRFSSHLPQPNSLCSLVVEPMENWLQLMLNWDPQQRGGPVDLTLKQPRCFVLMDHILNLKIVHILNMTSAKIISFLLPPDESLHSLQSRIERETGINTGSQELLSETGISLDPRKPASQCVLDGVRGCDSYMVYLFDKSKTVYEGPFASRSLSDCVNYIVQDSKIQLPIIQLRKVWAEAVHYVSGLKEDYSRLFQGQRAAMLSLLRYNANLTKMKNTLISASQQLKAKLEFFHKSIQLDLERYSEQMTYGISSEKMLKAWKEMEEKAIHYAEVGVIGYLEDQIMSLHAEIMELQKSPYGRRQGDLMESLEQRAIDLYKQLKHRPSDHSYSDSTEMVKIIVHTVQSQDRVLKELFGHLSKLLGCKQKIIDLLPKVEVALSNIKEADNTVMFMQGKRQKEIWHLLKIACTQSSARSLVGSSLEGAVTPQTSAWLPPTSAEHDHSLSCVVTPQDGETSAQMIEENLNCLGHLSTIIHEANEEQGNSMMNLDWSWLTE
# Sequence (Q9Y6K9 whole entry partner): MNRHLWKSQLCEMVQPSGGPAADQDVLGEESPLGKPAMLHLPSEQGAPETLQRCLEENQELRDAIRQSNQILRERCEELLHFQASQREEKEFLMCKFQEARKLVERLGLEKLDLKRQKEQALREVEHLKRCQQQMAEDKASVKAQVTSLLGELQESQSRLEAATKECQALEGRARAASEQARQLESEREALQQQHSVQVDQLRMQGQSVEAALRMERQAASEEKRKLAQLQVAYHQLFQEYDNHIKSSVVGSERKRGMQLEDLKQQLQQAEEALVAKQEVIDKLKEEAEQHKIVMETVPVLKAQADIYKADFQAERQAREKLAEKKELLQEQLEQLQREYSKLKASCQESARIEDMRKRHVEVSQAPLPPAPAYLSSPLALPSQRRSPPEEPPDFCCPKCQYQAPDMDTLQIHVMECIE
# procedure_text: IκB kinase ELISA
# test_conditions: kinase complex from HeLa S3 cell extract S100, activated with MEKK1Δ
measured_metric: pIC50
// pIC50 here means minus log10 of the molar concentration (mol/L)

# pIC50 of `Cc1c(-c2ccncc2)[nH]c2ccc(C(=O)N[C@@H](CSc3ccccc3)C(N)=O)cc12` = 5.31

# pIC50 of `NC(=O)[C@H](CCc1ccccc1)NC(=O)c1ccc2[nH]c(-c3ccncc3)cc2c1` = 6.21

# pIC50 of `O=C(N[C@@H](CSc1ccccc1)C(=O)O)c1ccc2[nH]c(-c3ccncc3)cc2c1` = 6.30
